# SYSTEM NAME: SIX1-Q177R homeodomain (human, UniProt Q15475 108-198, Q177R)
# Sequence: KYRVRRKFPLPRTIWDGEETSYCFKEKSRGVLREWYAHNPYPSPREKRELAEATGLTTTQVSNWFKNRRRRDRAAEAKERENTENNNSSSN
# METHOD DESCRIPTION: universal protein binding microarray; Universal all-10-mer PBM (8x60K, AMADID 030236), 300 nM GST-tagged protein, Alexa Fluor 488 anti-GST; buffer, salt, pH and temperature not stated (as in Berger); high values mean tight binding
# CONDITION PARAMETERS: protein: ivt; tags: N-terminal GST; dsDNA, one strand shown
The full ranking holds about 33,000 sequences; the median of “e-score” is about -0.05, and the highest 2% start at about 0.38. Only a selection was taken, and the highest values are over-represented in it overall.
# binning rule on binding signal: low = under 0.2 E-score, intermediate = from 0.2 E-score up to 0.4 E-score, high = 0.4 E-score and over

Use the examples below as a reference point.
>>> label("CACTACCA")
"intermediate"
>>> label("CGTGTAAC")
"high"
>>> label("AGTGCGGA")
"low"

Ask: Bin? GCGTTTAC
Reply: low
